src = patent US20080267971A1

Biological target: T1, human Angiopoietin-2 (human, UniProt O15123 19-496)
T1 construct: Mostly bought recombinant protein (R&D Systems 623-AM/CF, 623-AN; biotinylated BT623) or supernatant of transfected 293F cells; also called Ang-2; rhAng-2
T1 sequence: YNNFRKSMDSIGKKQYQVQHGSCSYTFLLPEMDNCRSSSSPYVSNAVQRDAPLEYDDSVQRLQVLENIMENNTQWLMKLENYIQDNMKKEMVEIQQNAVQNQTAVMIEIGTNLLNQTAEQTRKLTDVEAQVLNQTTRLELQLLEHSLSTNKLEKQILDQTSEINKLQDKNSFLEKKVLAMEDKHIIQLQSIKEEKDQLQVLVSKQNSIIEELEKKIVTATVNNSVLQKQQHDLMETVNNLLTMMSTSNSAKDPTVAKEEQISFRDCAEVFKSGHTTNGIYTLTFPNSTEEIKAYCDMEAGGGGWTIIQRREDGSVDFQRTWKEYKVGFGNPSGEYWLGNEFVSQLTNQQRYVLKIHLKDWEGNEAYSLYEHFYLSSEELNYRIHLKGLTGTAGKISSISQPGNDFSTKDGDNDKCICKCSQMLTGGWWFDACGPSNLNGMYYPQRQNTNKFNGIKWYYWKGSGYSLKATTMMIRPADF
Assay: Biacore, mAb captured
measurement kind: kon
Write the numeric value and follow it with the unit.

binder	measured value
mAb 3.19.3 (antibody, V domains shown, Human hybridoma IgG (XenoMouse); also called x3.19) VH: QVQLVESGGGVVQPGRSLRLSCAASGFTFTNYGMHWGRQAPGKGLEWVAVISHDGNNKYYVDSVKGRFTISRDNSKNTLYLQMNSLRAEDTAVYYCAREGIDFWSGLNWFDPWGQGTLVTVSS VL: EIVLTQSPGTLSLSPGERATLSCRASQSITGSYLAWYQQKPGQAPRLLICGASSWATGIPDRFSGSGSGTDFTLTISRLEPEDFAVYYCQQYSSSPITFGQGTRLEIKR	90000 M⁻¹ s⁻¹

Quick batch: kon for everything below.
1. mAb 5.52.1 (antibody, V domains shown, Human hybridoma IgG (XenoMouse); the line 5.52 has entries of its own (347, 349; light chain L2) that differ from the clone 5.52.1 (L5); also called x5.52) VH: QVQLVESGGGVVQPGRSLRLSCAASGFTFSSYGMHWVRQAPGKGLEWVAVRWYDESNKYYADSVKGRFTISRDNSKNTLYLQMNSLRAEDTAVYYCARDPFETGTTFDYWGQGTLVTVSS VL: DIQMTQSPSSVSASVGDRVTITCRASQGISSWLAWYQQKPGKAPKLLIYAVSSLESGVPSRFSGSGSGTDFTLTISSLQPEDFATYYCQQALTFGGGTKVEIKR
2. mAb 5.13.1 (antibody, V domains shown, Human hybridoma IgG (XenoMouse); also called x5.13) VH: EVQLVESGGGLVQPGGSLRLSCAASGFTFSSYWMSWVRQAPGKGLEWVANIKQDGSEKYYVDSVKGRFTISRDNAKNSLYLQMNSLRAEDTAVYYCARDPGIAVAGPFDYWGQGTLVTVSS VL: EIVMTQSPATLSVSPGERATLSCRASQSVSSNLAWYQQKPGQAPRLLIYGASTRATGIPARFSGSGSGTEFTLTISSLQSEDFAVYYCQQYNHWWTFGQGTKVEIKR

A)
1. 13000 M⁻¹ s⁻¹
2. 210000 M⁻¹ s⁻¹
